Molecular target: Casein kinase I isoform gamma-2 (Homo sapiens);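 further: values are mean inhibition figures reported as part of the GSK PKIS dataset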
Details: at 0.1 µM
quantityMeasured: inhibition (%)

> print(dat)
                                 smilesinput  quantitymeasured  unitssymbol  quantitativeresult
 1  Fc1ccc(Nc2nccc(-c3c(-c4ccc(C(F)(F)F)cc4)nn4ncccc34)n2)cc1F        inhibition            %                1.53
 2  c1ccc(-c2n[nH]cc2-c2ccnc(-c3ccc(OCCn4ccnc4)cc3)c2)nc1        inhibition            %                0.83
 3  N#Cc1ccc2c(-c3ccnc(NC4CC4)n3)c(-c3ccc(F)cc3)nn2c1        inhibition            %                   2
 4  O=C(O[C@H]1CN[C@H](C#Cc2cc3ncnc(Nc4ccc5c(cnn5Cc5ccccc5)c4)c3s2)C1)N1CCOCC1        inhibition            %               -0.61
 5  OCCCNc1nccc(-c2c(-c3ccc(F)cc3)nn3cc(C(F)(F)F)ccc23)n1        inhibition            %                0.31
 6    O=C(Nc1n[nH]c2nnc(-c3cccnc3)cc12)C1CC1        inhibition            %               -0.76
 7  CCOc1ccc2c(-c3ccnc(Nc4cc(OC)cc(C(F)(F)F)c4)n3)cnn2n1        inhibition            %               -0.22
 8    CCn1c(-c2nonc2N)nc2cncc(C(=O)NCCNC)c21        inhibition            %                3.81
 9  CN(C)CCNC(=O)Nc1ccc(N(C)c2ccnc(Nc3ccc(CS(C)(=O)=O)cc3)n2)cc1        inhibition            %                4.73
10  NS(=O)(=O)c1cccc(N/C=C2\C(=O)Nc3ccccc32)c1        inhibition            %                3.71
11  O=C(O[C@H]1CN[C@H](C#Cc2cc3ncnc(Nc4ccc5c(ccn5Cc5cc(F)ccc5F)c4)c3s2)C1)N1CCOCC1        inhibition            %                3.09
12  CS(=O)(=O)CCNCc1ccc(-c2ccc3ncnc(Nc4ccc(OCc5ccccc5)cc4)c3c2)o1        inhibition            %                2.72
13        O=C1Nc2ccccc2/C1=C1\CCc2cc(O)ccc21        inhibition            %                3.27
14  COc1c(C(N)=O)cc(-c2ccc(Cl)cc2)cc1-c1ccc(S(N)(=O)=O)cc1        inhibition            %                4.61
15  CN1CCC(n2cnc(-c3ccc(F)cc3)c2-c2ccnc(NCCO)n2)CC1        inhibition            %                2.94
16  NS(=O)(=O)c1ccc(N/N=C2\C(=O)Nc3cccc(CCc4ccncc4)c32)cc1        inhibition            %                0.15
17  Cc1c2ccc(N(C)c3ccnc(Nc4cccc(S(N)(=O)=O)c4)n3)cc2nn1C        inhibition            %               -0.37
18    c1cnn2ncc(-c3ccnc(NCCCN4CCOCC4)n3)c2c1        inhibition            %                3.07
19  CS(=O)(=O)CCNCc1ccoc1-c1ccc2ncnc(Nc3ccc(OCc4ccccc4)cc3)c2c1        inhibition            %                0.24
20  CCN1CCC(C(=O)Nc2n[nH]c3nnc(-c4cccc(F)c4F)cc23)CC1        inhibition            %               -0.42
21     COc1cccc(Nc2nccc(-c3cnn4ncccc34)n2)c1        inhibition            %                4.45
22           CNC(=O)c1cncc(/C=C/c2ccccc2C)c1        inhibition            %                2.46
